// reported pIC50 for each item listed
# System: RAW264.7
# assayName: Anti-inflammatory activity in LPS-stimulated mouse RAW264.7 cells assessed as suppression of IL6 production pre-incubated for 1 hr before LPS stimulation for 24 hrs by ELISA method
# Type: functional, cell-based
Quick note: pIC50 values are minus log10 of concentrations in mol/L.

- Cn1cc(CCNS(=O)(=O)c2ccc(/C=C/C(=O)NO)cc2)c2ccccc21: 7.49
- Cc1[nH]c2ccccc2c1CCNS(=O)(=O)c1ccc(C(=O)NO)cc1: 7.62

Input Cc1[nH]c2ccccc2c1CCNS(=O)(=O)c1cccc(/C=C/C(=O)NO)c1 , output reported pIC50. 7.89
